tested on: SN12C renal; assay: NCI-60 one-dose screen, 48 h (100 = growth as untreated, 0 = no growth, -100 = all killed); settings: 10 µM unless noted
Compounds without any hit were thinned out: in the full panel of roughly 83,000, 20% have a hit.
PROPERTY: growth (%)
Your answer should be a plain number; it is taken to be in %.

Before answering, review these 4 worked examples.
- COc1ccc(Nc2ncccc2/C=C/C(=O)c2cc(OC)c(OC)c(OC)c2)cc1: -18.1
- CC1(C)C(N)=Nc2cc(OCCCN3Cc4ccccc4C3)c(OCC3CC3)cc21: 84.5
- O=C(CCl)NNc1nccc(Nc2ccc(S(=O)(=O)Nc3ccncc3)cc2)n1: 23.8
- Cc1ccc(/C=C/C(=O)c2cccc(OCCCOc3cccc(C(=O)/C=C/c4ccc(C)cc4)c3)c2)cc1: 79.6

Query: Return reported growth. Input molecule: COc1ccc(/C=C/C(c2cc(OC)c(OC)c(OC)c2)n2cncn2)cc1 (stereo not given)
Reply: 62

----------
tested on: A549/ATCC NSCLC; experiment: NCI-60 one-dose screen, 48 h; details: 10 µM unless noted
This is part of a sample that, as a whole, favours compounds with a hit. Of some 83,000 tested, about 20% had one in any assay. The source made the active and inactive calls. Rule for the calls: active = growth percent below 10; inactive = the rest.
Give your call using only these classes: True for active, False for inactive

Example entries and their recorded answers appear below.
* CC1=C2[C@@H](CC1)[C@]1(C)O[C@@](c3ccccc3)(C[C@H]1OC(=O)CO)[C@H]2OC(=O)/C=C/c1ccccc1 | False
* Nc1[nH]n2cc(-c3ccc(F)cc3)nc2c1N=Nc1ccc(S(N)(=O)=O)cc1 | False
* O=C(O)/C=C/C(=O)Nc1cccc(Cn2nnc3cc(Cl)c(Cl)cc32)c1 | False
* COc1ccc(N2CCC(=S)NC2=S)cc1 | False
* Nc1nc(N)c2c(n1)NC(c1cccc(Nc3ccnc4cc(C(F)(F)F)ccc34)c1)CC(c1ccccc1)=N2 (configuration not stated) | False
* O=C(/C=C/c1ccccc1)c1ccc(Nc2nc(Nc3ccc(F)cc3)nc(Nc3ccc(Cl)cc3)n2)cc1 | False
* CC1(C)CC[C@]2(C(=O)N[C@H](CO)Cc3ccccc3)CC[C@]3(C)C(=CC[C@@H]4[C@@]5(C)CCCNC(C)(C)[C@@H]5CC[C@]43C)[C@@H]2C1 | False
* CN1CCN(C(=O)[C@@]2(C)CC[C@]3(C)CC[C@]4(C)C(=CC[C@@H]5[C@@]6(C)CCC(=O)NC(C)(C)[C@@H]6CC[C@]54C)[C@@H]3C2)CC1 | False

Query: Returns: the outcome recorded for `O=c1nc(-c2ccccc2)c2cc(-c3ccc(C(F)(F)F)nc3)ccc2[nH]1` in this assay.
Reply: False

Query: Hello, I am checking results. What call was entered for `COc1ccc(/C=C/c2ccc3ccccc3n2)c(OC)c1` ?
Reply: False

Query: Test call for this compound, please: `CN1CCN(Cc2ccc(NC(=O)c3cncc(C#Cc4cnc5ccc(Cl)nn45)c3)cc2C(F)(F)F)CC1`
Reply: True

Query: Hi team, can someone confirm the assay call for `CNCc1cccc2c1OCCOCCOCCNS(=O)(=O)c1ccc(cc1)-c1cnc(N)c(n1)C(=O)N2` ?
Reply: False

Query: Record lookup: outcome of this test for `Cc1nc2cc(O)c(O)cc2cc1Oc1ccc(NC(=O)Nc2ccc(Cl)c(Cl)c2)cc1` ?
Reply: False

----------
tested on: LOX IMVI melanoma; test: NCI-60 one-dose screen, 48 h; conditions: 10 µM unless noted
The panel holds about 83,000 compounds, 20% with a hit somewhere; the sample as a whole holds those more often. Calls of active or inactive are those of the source. How the source made its calls: active means growth percent below 10; inactive means the rest.
Reply using exactly one outcome from Y for active, N for inactive

• CNC(=O)c1cc(Oc2ccc3c(c2)sc2nc(-c4ccc(OC)cc4)cn23)ccn1 = N

Query: Each compound tested received a call. Report the one for `O=C1C(Nc2ccccn2)=C(I)C(=O)c2ncccc21` .
Reply: Y

Query: Outcome? `O=C(Cc1ccccc1)Nc1cccc(N=Cc2ccccc2O)c1`
Reply: N

Query: Just curious, what result did `C=CC(=O)Nc1ccc(Oc2nccc(Nc3nnc(-c4ccc(C)cc4)s3)n2)cc1` get here?
Reply: N

Query: Recorded test call requested for `COC1=C(C)C(=O)N2[C@@H]1[C@H](c1ccccc1)OC21C=CC(=O)C=C1`
Reply: Y

----------
test system: OVCAR-3 ovarian; experiment: NCI-60 one-dose screen, 48 h; settings: 10 µM unless noted
About 83,000 compounds went through this panel and 20% of them were active in at least one assay; those are over-represented in the sample as a whole. The source made the active and inactive calls. Rule for the calls: active = growth percent below 10; inactive = the rest.
Choose one outcome from this list and give only that: active, inactive

Worked examples follow.
- Cc1ccccc1Nc1cc(O)c2c(=O)cc(-c3ccccc3)oc2c1: active
- O=C(O)[C@@H](Cc1ccc2ccccc2c1)NC(=O)n1c2ccccc2c2ccccc21: active
- Oc1c(CN2CCOCC2)cc(COCc2ccccc2)c2cccnc12: inactive

Query: So what was the verdict on `Cc1ncc(C(=O)Nc2ccc(CN3CCN(C)CC3)c(C(F)(F)F)c2)cc1C#Cc1cnc(N)c2ncccc12` in this test?
Reply: inactive

Query: Answer briefly: the call reported for `Cc1nc2cc(O)c(O)cc2cc1Oc1ccc(NC(=O)Nc2ccc(Cl)c(Cl)c2)cc1` in this assay.
Reply: inactive

Query: Recorded call for `Cc1ccc(/C=C/C(=O)Nc2ncc(Cc3ccc(F)cc3)s2)o1` ?
Reply: inactive

Query: // return assay outcome for `COc1ccc(/C=C2\COc3ccc(O)cc3C2=O)cc1`
Reply: inactive

Query: Just curious, what result did `C=C(C)[C@@H]1CC[C@]2(C)[C@H](CC=C3[C@@H]4CC(C)(C)CC[C@]4(CO)CC[C@]32C)[C@@]1(C)CCCN` get here?
Reply: active

Query: Test call for this molecule, please: `COc1ccc(N2CCC(=S)NC2=S)cc1`
Reply: inactive

Query: I'd appreciate the recorded outcome for `COc1ccc(/C=C/C(=O)c2cc(OC)c(OC)c(OC)c2)cc1OCC(=O)Nc1nc2ccc(OC(F)(F)F)cc2s1` from this test.
Reply: active

----------
test system: U251 CNS; assay: NCI-60 one-dose screen, 48 h; details: 10 µM unless noted
The panel holds about 83,000 compounds, 20% with a hit somewhere; the sample as a whole holds those more often. Active and inactive are the calls of the source. How the source made its calls: active means growth percent below 10; inactive means the rest.
Respond using exactly one of the listed classes: yes (1) = active, no (0) = inactive

Query: What did the test return for `NC(=O)c1c(NC(=O)c2cccc(C(F)(F)F)c2)sc2c1CCC(=O)C2` ?
Reply: yes (1)

----------
test system: SNB-75 CNS; assay: NCI-60 one-dose screen, 48 h (100 = growth as untreated, 0 = no growth, -100 = all killed); details: 10 µM unless noted
This is part of a sample that, as a whole, favours compounds with a hit. Of some 83,000 tested, about 20% had one in any assay.
Quick rule: growth of at least 50% means satisfied, below that means not satisfied.

The following compounds have reported results that may help.
* N=c1c(S(=O)(=O)c2ccccc2)cc2c(=O)n3ccccc3nc2n1CC1CCCO1 (stereo not given) | satisfied
* COc1ccc(C(=O)Cn2c(C(=O)c3ccc(Cl)cc3)nc3ccccc32)cc1 | satisfied
* CC1=CCC(OC(=O)C(C)(C)CC(O)(C(C)O)C(O)C2(C)C=CC(Cc3ccc(C(C)C)cc3)(C(C)C)CC2)(C(C)C)CC1 (stereo not given) | satisfied
* Ic1ccccc1I | satisfied

For the next question, use this compound.
Query: Is the recorded value of growth equal to or greater than 50% for this compound? `C=C1C(=O)O[C@H]2[C@H]1CC/C(CNC(=O)c1c[nH]c3ccc(F)cc13)=C\CC[C@@]1(C)O[C@@H]21`
Reply: not satisfied

----------
system: SN12C renal; assay: NCI-60 one-dose screen, 48 h; conditions: 10 µM unless noted
This is part of a sample that, as a whole, favours compounds with a hit. Of some 83,000 tested, about 20% had one in any assay. Calls of active or inactive are those of the source. How the source made its calls: active means growth percent below 10; inactive means the rest.
Allowed answers: Y = active, N = inactive

Record excerpt, results attached:
- O=C(Nc1ccc(Cl)cc1)Oc1c(Cl)c(Cl)c(Cl)c(Cl)c1Cl: N
- CCOC(=O)c1cc(C(=O)c2cc(OC)c(OC)c(OC)c2)n2ccccc12: N
- CCOC(=O)/C=C1\S/C(=N\Nc2cc(=O)[nH]c3ccccc23)N(c2ccccc2)C1=O: N
- CN(C)S(=O)(=O)Oc1ccc(-c2sc3cc(OS(=O)(=O)N(C)C)ccc3c2C(=O)c2ccc(OCCN3CCCCC3)cc2)cc1: N
- C=C(CNCCc1ccc(O)cc1)[C@@H]1CC[C@]2(CO)CC[C@]3(C)[C@H](CC[C@@H]4[C@@]5(C)CCC(=O)C(C)(C)[C@@H]5CC[C@]43C)[C@@H]12: N

Query: Record lookup: outcome of this test for `CCCCCCCC/C=C\CCCCCCCCOc1ccc(CC(=O)NCC[N+]2(C)CCOCC2)cc1` ?
Reply: N

Query: What classification did CCO/C=N/C1=C(C#N)C(c2ccc(F)cc2)c2sc3c(F)cccc3c2O1 (centres undefined) end up with in this test?
Reply: N

Query: Check the results log: what was the call for COc1ccc(CCN2C(=O)/C(=C/c3ccc(C4Oc5ccccc5C5CC(c6ccccc6)=NN54)cc3)SC2=S)cc1 (centres undefined) ?
Reply: N

Where do these numbers come from? They come from PubChem BioAssay (NCI).
